What follows is a collection of IC50 values obtained with human BACE1 (Homo sapiens).
Sequence (P56817 46-501): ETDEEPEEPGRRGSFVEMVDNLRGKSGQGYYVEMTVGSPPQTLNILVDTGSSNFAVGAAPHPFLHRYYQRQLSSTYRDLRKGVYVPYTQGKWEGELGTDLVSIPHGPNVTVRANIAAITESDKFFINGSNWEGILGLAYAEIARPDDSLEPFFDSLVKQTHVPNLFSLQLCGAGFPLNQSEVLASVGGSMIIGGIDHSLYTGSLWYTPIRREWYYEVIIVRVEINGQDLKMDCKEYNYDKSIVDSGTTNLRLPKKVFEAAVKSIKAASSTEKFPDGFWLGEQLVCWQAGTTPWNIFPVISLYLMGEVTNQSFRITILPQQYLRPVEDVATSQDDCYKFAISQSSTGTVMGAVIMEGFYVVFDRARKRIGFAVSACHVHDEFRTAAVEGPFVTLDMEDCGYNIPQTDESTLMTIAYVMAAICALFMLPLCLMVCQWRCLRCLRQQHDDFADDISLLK

# annotated cases, reported IC50 shown
CCC(=O)c1cc(C2(c3cccc(OCC(C)C)c3)N=C(N)N(C)C2=O)cn1CC (stereo not shown)
0.01 to 0.1 µM
CN1C(=O)C(c2cccc(-c3cncnc3)c2)(c2cscn2)N=C1N (stereo not shown)
0.11 to 1 µM
COC(=O)c1cc([C@@]2(c3ccc(F)c(-c4cncnc4)c3)N=C(N)N(C)C2=O)cn1CCF [Example 119B]
0.11 to 1 µM
CCC(=O)c1cc([C@@]2(c3cccc(-c4cccnc4F)c3)N=C(N)N(C)C2=O)cn1CC(F)(F)F [Example 224B]
> 1 µM
CCC(=O)c1cc(C2(c3ccc(F)c(-c4cccnc4F)c3)N=C(N)N(C)C2=O)cn1CC(F)(F)F (stereo not shown)
0.01 to 0.1 µM

Ask | Find the measured IC50 of CN1C(=O)C(c2cccc(-c3cccnc3F)c2)(c2cnn(CCC3CCCCC3)c2)N=C1N (stereo not shown) with human BACE1 (Homo sapiens) as test system.
Reply | 0.01 to 0.1 µM

Ask | # return IC50 for CCC(=O)c1cc(C2(c3cccc(Br)c3)N=C(N)N(C)C2=O)cn1CCF (stereo not shown) , test system: human BACE1 (Homo sapiens)
Reply | 0.11 to 1 µM

Ask | Using human BACE1 (Homo sapiens) as the test system, report measured IC50 of COC(=O)c1cc(C2(c3ccc(F)c(-c4cccnc4F)c3)N=C(N)N(C)C2=O)cn1CCF (stereo not shown) .
Reply | 0.01 to 0.1 µM

Ask | State recorded IC50 with human BACE1 (Homo sapiens), entry CC(C)Cn1cc(C2(c3cccc(-c4cccnc4F)c3)N=C(N)N(C)C2=O)cn1 (stereo not shown) , no comment.
Reply | 0.01 to 0.1 µM

Ask | Provide measured IC50 on human BACE1 (Homo sapiens) for CCn1cc(C2(c3cccc(-c4cccnc4F)c3)N=C(N)N(C)C2=O)cc1C(=O)C(C)C (stereo not shown) please.
Reply | 0.01 to 0.1 µM

Ask | With human BACE1 (Homo sapiens) as the test system, provide measured IC50 for this molecule: COC(=O)c1cc([C@@]2(c3ccc(F)c(-c4cccnc4F)c3)N=C(N)N(C)C2=O)cn1CCF [Example 184B]
Reply | 0.11 to 1 µM

Ask | Name the recorded IC50 of CCc1cc(C2(c3cccc(-c4cncnc4)c3)N=C(N)N(C)C2=O)c(C)s1 (stereo not shown) , assay system human BACE1 (Homo sapiens).
Reply | 0.11 to 1 µM
